- ASSAYED_SYSTEM: mAChR M1 (UniProt P11229)
- Sequence (P11229 1-460): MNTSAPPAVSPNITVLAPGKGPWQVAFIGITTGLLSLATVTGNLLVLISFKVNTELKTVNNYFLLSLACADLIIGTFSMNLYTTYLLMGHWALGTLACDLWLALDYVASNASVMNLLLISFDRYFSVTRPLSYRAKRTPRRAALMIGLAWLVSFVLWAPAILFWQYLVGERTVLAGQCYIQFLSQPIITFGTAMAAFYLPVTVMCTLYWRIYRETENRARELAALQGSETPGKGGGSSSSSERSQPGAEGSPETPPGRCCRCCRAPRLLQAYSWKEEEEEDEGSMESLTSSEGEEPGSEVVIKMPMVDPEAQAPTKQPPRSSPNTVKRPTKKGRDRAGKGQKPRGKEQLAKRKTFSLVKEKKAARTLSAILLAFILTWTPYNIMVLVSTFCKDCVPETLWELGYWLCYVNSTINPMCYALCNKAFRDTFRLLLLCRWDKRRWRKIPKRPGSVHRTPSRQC
- TEST_DESCRIPTION: mAChR M1 cell-based functional assay (calcium mobilization, potentiation of EC20 acetylcholine response)
- SETUP_CONDITIONS: CHO-K1 cells expressing mAChR M1; increase in EC20 acetylcholine response; >10 μM estimated where no plateau in the curve
Task for the reader: assign each of the following compounds its reported EC50.
One number for each entry, in µM.

# COMPOUND, OUTCOME_MEASURE, UNIT_LABEL, NUMERIC_VALUE
measured = [
    ("CC1CCC(N2CCC3(C2)C(=O)N(Cc2ccc(-c4cnn(C)c4)cc2F)c2ccccc23)CC1 (stereo not drawn)", "EC50", "µM", 6.7),
    ("CC(C)N1CCC(N2CCC3(C2)C(=O)N(Cc2ccc(-c4cnn(C)c4)cc2F)c2ccccc23)CC1 (stereo not drawn)", "EC50", "µM", 5),
    ("Cn1cc(-c2ccc(CN3C(=O)C4(CCN(C5CCCOC5)C4)c4ccccc43)c(F)c2)cn1 (single isomer, unassigned) [Compound B35]", "EC50", "µM", 3.9),
    ("Cn1cc(-c2ccc(CN3C(=O)C4(CCN(C5CCCC5)C4)c4ccccc43)cc2F)cn1 (stereo not drawn)", "EC50", "µM", 2),
    ("Cn1cc(-c2ccc(CN3C(=O)C4(CCN(C5CCCC5)CC4)c4ccccc43)c(F)c2)cn1", "EC50", "µM", 5.5),
]

For every listed record, write down its EC50.
1. Cn1cc(-c2ccc(CN3C(=O)C4(CCN(C5CCSCC5)CC4)c4ccccc43)c(F)c2)cn1
2. Cn1cc(-c2ccc(CN3C(=O)C4(CCN(C5CCCOC5)CC4)c4ccccc43)c(F)c2)cn1 (stereo not drawn)
3. CCCn1cc(-c2ccc(CN3C(=O)C4(CCN(C5CCCC5)C4)c4ccccc43)c(F)c2)cn1 (stereo not drawn)
4. Cn1cc(-c2ccc(CN3C(=O)C4(CCN(C5CCSCC5)C4)c4ccccc43)c(F)c2)cn1 (stereo not drawn)
5. Cn1cc(-c2ccc(CN3C(=O)C4(CCN(C5CCCCCC5)C4)c4ccccc43)c(F)c2)cn1 (stereo not drawn)
6. Cn1cc(-c2ccc(CN3C(=O)C4(CCN(C5CCCC5)C4)c4ccccc43)c(F)c2F)cn1 (stereo not drawn)
7. CN1CCCC(N2CCC3(CC2)C(=O)N(Cc2ccc(-c4cnn(C)c4)cc2F)c2ccccc23)C1 (stereo not drawn)

Found:
[4.7, 4.7, 3.8, 2.7, 3, 2.4, 6.7]

Could you report EC50 for every entry in the following list?
1. CN1CCC2(C1)C(=O)N(Cc1ccc(-c3cnn(C)c3)cc1F)c1ccccc12 (racemic) [Compound B18]
2. Cn1cc(-c2ccc(CN3C(=O)C4(CCN(C5CCNC5)CC4)c4ccccc43)c(F)c2)cn1 (stereo not drawn)

Found:
1: 2.9; 2: 3.9
